# System: RXRa DBDmut IVT, anti-RXR (DBD mutation: RXRa K156A/R161A, NR concentration 90 nM)
# TEST_DESCRIPTION: PBM binding z-score (relative to random genomic background probes); higher = stronger binding; sequences stand for … in GC…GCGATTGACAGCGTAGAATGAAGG
MEASURED_PROPERTY: PBM binding z-score
Respond with the number and no other words.

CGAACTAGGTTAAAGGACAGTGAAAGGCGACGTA :: -0.1
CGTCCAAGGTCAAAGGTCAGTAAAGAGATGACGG :: 3.88
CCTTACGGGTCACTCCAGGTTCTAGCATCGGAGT :: 1.4

Given the sequence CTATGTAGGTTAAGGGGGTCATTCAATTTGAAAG , write its reported PBM binding z-score.
2.02

Given the sequence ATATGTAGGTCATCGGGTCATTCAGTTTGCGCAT , write its reported PBM binding z-score.
2.92

Given the sequence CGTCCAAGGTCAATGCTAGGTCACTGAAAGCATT , write its reported PBM binding z-score.
3.59

Given the sequence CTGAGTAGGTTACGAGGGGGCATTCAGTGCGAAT , write its reported PBM binding z-score.
1.46

Given the sequence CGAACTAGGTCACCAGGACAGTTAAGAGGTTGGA , write its reported PBM binding z-score.
1.21

Given the sequence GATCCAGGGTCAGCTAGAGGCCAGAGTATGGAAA , write its reported PBM binding z-score.
0.756

Given the sequence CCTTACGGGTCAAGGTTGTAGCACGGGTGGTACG , write its reported PBM binding z-score.
0.452

Given the sequence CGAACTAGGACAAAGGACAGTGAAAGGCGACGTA , write its reported PBM binding z-score.
-0.1
